Test system: VDR homodimer (NR concentration 270 nM)
assay.overview: PBM binding z-score (relative to random genomic background probes); higher = stronger binding; sequences stand for … in GC…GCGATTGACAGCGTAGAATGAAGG
property.measured: PBM binding z-score
One number for each entry.

Field: example entries. Status: answers known.
[
  {
    "sequence.code": "CCTTACCGGTCACGAGGTTATAGCACGACGAGCG",
    "subject.of.test": "VDR homodimer (NR concentration 270 nM)",
    "observed.result": 1.34
  },
  {
    "sequence.code": "AGAATAAGGTTACCAAAGATCAGGGAAACGCTTG",
    "subject.of.test": "VDR homodimer (NR concentration 270 nM)",
    "observed.result": 0.232
  },
  {
    "sequence.code": "TCTATTAGTTGATTAGAGCAACCGAAACAGCGGA",
    "subject.of.test": "VDR homodimer (NR concentration 270 nM)",
    "observed.result": 0.18
  },
  {
    "sequence.code": "ATCTCTAGGTAACCAAGTGCAGTGAATGCCGAAC",
    "subject.of.test": "VDR homodimer (NR concentration 270 nM)",
    "observed.result": 0.337
  },
  {
    "sequence.code": "CGTCCAAGGTCATAGGACGTCAGTGAAGACAGAT",
    "subject.of.test": "VDR homodimer (NR concentration 270 nM)",
    "observed.result": 3.01
  },
  {
    "sequence.code": "CGAACTAGGTCTTTGACAGGACAGTGAATAGTAA",
    "subject.of.test": "VDR homodimer (NR concentration 270 nM)",
    "observed.result": -0.305
  },
  {
    "sequence.code": "TCTCGGAGGACACGAAATGTCAGAGCTCGACATC",
    "subject.of.test": "VDR homodimer (NR concentration 270 nM)",
    "observed.result": -0.342
  },
  {
    "sequence.code": "ACAGACAGGTGAGTCAAGGTAACTCAGCTGGACG",
    "subject.of.test": "VDR homodimer (NR concentration 270 nM)",
    "observed.result": -0.203
  }
]

Lab note: each sequence below needs its PBM binding z-score filled in.
1. AGAATGAGGTTATTAAGATCAGGGAGTTGCGGTC
2. TCGAGTAGGTTAGGGGCATTCACAATGGCGTCGA
3. GCATATAGGTAATACAAGGTGAAACTCCGATTGT

[1.39, 1.04, 0.121]

PBM binding z-score on VDR homodimer (NR concentration 270 nM) for `TCAGACAGGAGAAGGTAACTCAGGTACGCAGTCG` is -0.0806

###

System: PPARg DBDmut IVT, anti-PPARg (DBD mutation: PPARg1 K132A/R137A, NR concentration 270 nM)
assay.overview: PBM binding z-score (relative to random genomic background probes); higher = stronger binding; sequences stand for … in GC…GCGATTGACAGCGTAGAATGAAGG
So I've got a bunch of sequences here, and I need their PBM binding z-score values.
Numbers only.

Field: example entries. Status: answers known.
[
  {
    "sequence.code": "CCTTACGGGTCACTGACAGGTTATAACATTTGGA",
    "property.measured": "PBM binding z-score",
    "observed.result": 0.266
  },
  {
    "sequence.code": "CCTATTAGTTGTCCATAAGGGCAACCGAAGCTCG",
    "property.measured": "PBM binding z-score",
    "observed.result": 1.02
  },
  {
    "sequence.code": "GGAACGAGGGCAGAGTTGATAGCATCTGTCGACG",
    "property.measured": "PBM binding z-score",
    "observed.result": -0.602
  },
  {
    "sequence.code": "TCTTGTAGATCAACAGTAGGTTAAGAAAGATCGA",
    "property.measured": "PBM binding z-score",
    "observed.result": 0.698
  },
  {
    "sequence.code": "AGAACGAGGGCACGCTGAGTTGATACCAGAGTAG",
    "property.measured": "PBM binding z-score",
    "observed.result": -0.00374
  },
  {
    "sequence.code": "CCTAGTTGGACAGGAGGTCACACACCGGATATGA",
    "property.measured": "PBM binding z-score",
    "observed.result": 0.338
  },
  {
    "sequence.code": "GCTGCTAGGTCAGCTTGGTCAGCTAACGGGTACG",
    "property.measured": "PBM binding z-score",
    "observed.result": -1.08
  },
  {
    "sequence.code": "TCGAGTACGTTAGTCGGGGCATTCAGCCAACATA",
    "property.measured": "PBM binding z-score",
    "observed.result": -0.712
  }
]

Lab note: each sequence below needs its PBM binding z-score filled in.
1. TCTTGTAGATCAACAGGAGGTTTAGAAAGATCGA
2. AACTCTAGGTAACAAGTTCAGTGAAAGAGAGGAC
3. CCAACTGGGCCAAGGTCATTGATCAGTCAAAGCA
4. ATCGAAAGGTCGTGAGGTGGGTATACAGAAAGGC
5. CCGACTGGGGCAAACGTTACCATACTCAGTACGA
6. CGAACTAGGTCTTCCAGGACAGTGAATACATTGA
7. TGAATGAGGTTGTAAGATCAGGGAACGTTGCAAA

1. 0.199
2. 0.445
3. -0.824
4. 1.49
5. -0.646
6. 0.129
7. -0.354

###

So I've got a bunch of sequences here, and I need their PBM binding z-score values.
System: PXR homodimer (NR concentration 270 nM)
assay.overview: PBM binding z-score (relative to random genomic background probes); higher = stronger binding; sequences stand for … in GC…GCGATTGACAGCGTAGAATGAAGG
Give bare numbers.

Field: example entries. Status: answers known.
[
  {
    "sequence.code": "TTAACAAGGTGAAGGTCGTTGATCCCTCTGTAGA",
    "PBM binding z-score": 0.014
  },
  {
    "sequence.code": "ATCTCTAGTTAAGACTCAGTTCAGTGAAGAACGC",
    "PBM binding z-score": 2.02
  },
  {
    "sequence.code": "CCTTACGCGTCAAGGTTATAGCACGGGTGGTACG",
    "PBM binding z-score": 0.0877
  },
  {
    "sequence.code": "AATACAGGGTCATCGAAGGCCAGAGTACGCACAG",
    "PBM binding z-score": 0.967
  },
  {
    "sequence.code": "CCTCGGAGGACAACTGGAGGTCAGAGCTGCCAGA",
    "PBM binding z-score": 0.545
  }
]

Lab note: each sequence below needs its PBM binding z-score filled in.
1. GCAGACGGGTGAAACGCAGGTAACTCAGGGTGGC
2. CTACCAACGTGAACAAGGTCGTTGATTACTATTC
3. AGAATGAGGTTACCAAAGATCAAGGAAACGCTTG
4. TTACCAAGGTGATGGTCGTTGATCCCTCTGTAGA

1: -0.933; 2: 1; 3: -0.325; 4: -0.42

###

Tested on: VDR:RXRa (NR concentration 270 nM, RXRa partner concentration 90 nM)
assay.overview: PBM binding z-score (relative to random genomic background probes); higher = stronger binding; sequences stand for … in GC…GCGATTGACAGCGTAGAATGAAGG
property.measured: PBM binding z-score
Give bare numbers.

[
  {
    "sequence.code": "CGTACTGGGCCATCAGGTCATTGATATCAACGTT",
    "subject.of.test": "VDR:RXRa (NR concentration 270 nM, RXRa partner concentration 90 nM)",
    "PBM binding z-score": 1.97
  }
]

Lab note: each sequence below needs its PBM binding z-score filled in.
1. CATACTAGGTCACGAAAGGTCAAAGTCGAATGAC
2. TGACCAAGGTGAAGGTCGTTGATCCCTCTGTAGA

1: 6.92; 2: 1.43

###

So I've got a bunch of sequences here, and I need their PBM binding z-score values.
Tested on: RARg:RXRa (NR concentration 270 nM, RXRa partner concentration 90 nM)
assay.overview: PBM binding z-score (relative to random genomic background probes); higher = stronger binding; sequences stand for … in GC…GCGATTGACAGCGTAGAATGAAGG

Lab note: each sequence below needs its PBM binding z-score filled in.
1. CCTAGCAGGCCAAACTGGGTCACTCAAGGCTTGA
2. CGAACGAGGGCATAAGTTGATAGCAAATGCCGAT
3. AGAATGAGGGCACGCTGAGTTGATAGCAGAGTAG
4. ATATCTAGGTAAAGATAGTTCAGTGAATGCAAAT

1.16
1.23
2.28
0.606
